Values from patent US20230235012A1

- ASSAY SYSTEM: T1, human CD28, full-length, expressed on transfected Expi293 cells (human, UniProt P10747 19-220)
- T1 construct: whole, on cells
- METHOD NOTES: flow cytometry, 100 nM, Expi293 cells with human CD28
ASSAY METRIC: MFI (MFI)
Response body: numeric value in MFI, unit text excluded.

Task item: MFI for variant ICOSL IgV-Fc fusion N52G/N57V (Fc fusion) DTQEKEVRAMVGSDVELSCACPEGSRFDLNDVYVYWQTSESKTVVTYHIPQGSSLEVVDSRYRNRALMSPAGMLRGDFSLRLFNVTPQDEQKFHCLVLSQSLGFQEVLSVEVTLHVAANFSVGSGGGGSEPKSSDKTHTCPPCPAPEAEGAPSVFLFPPKPKDTLMISRTPEVTCVVVDVSHEDPEVKFNWYVDGVEVHNAKTKPREEQYNSTYRVVSVLTVLHQDWLNGKEYKCKVSNKALPAPIEKTISKAKGQPREPQVYTLPPSREEMTKNQVSLTCLVKGFYPSDIAVEWESNGQPENNYKTTPPVLDSDGSFFLYSKLTVDKSRWQQGNVFSCSVMHEALHNHYTQKSLSLSPG ?
Reply: 69100
